Procedure Summary: in vitro
Reported Conditions: human
Measured Endpoint: CC50

Past entries and their recorded results:
Compound	CC50
N#Cc1cccc2[nH]c(C(=O)N3C[C@@H]4CCC[C@@H]4[C@H]3C(=O)N[C@@H](C[C@@H]3CCNC3=O)C(=O)CO)cc12	> 100 µM
O=C1NCC[C@H]1C[C@H](NC(=O)[C@@H]1[C@H]2CCC[C@H]2CN1C(=O)c1cc2c(Cl)c(F)c(Cl)cc2[nH]1)C(=O)CO	> 50 µM

// next entry
Which measured CC50 value corresponds to COc1cccc2[nH]c(C(=O)N3C[C@@H]4CCC[C@@H]4[C@H]3C(=O)N[C@H](CN3CCCC3=O)C(=O)C(=O)NC3CC3)cc12 (single isomer, unassigned) [Compound 113B] ?
> 50 µM

Values compiled from patent US11952365B2.
